Property label: melting point

Field: example entries. Status: answers known.
INSERT INTO measurements (cpd_smiles, data_value) VALUES
  ('COCCc1nc2c(N)nc3c(c2n1CCOCCN(C)C(=O)Nc1ccccc1)CCCC3', '167.7 to 170 °C'),
  ('COCCc1nc2c(N)nc3c(c2n1CCOCCNC(=O)Nc1ccccc1)CCCC3', '180 to 182 °C'),
  ('CCc1nc2c(N)nc3ccccc3c2n1CCOCCNC(=O)N1CCOCC1', '182 to 184 °C'),
  ('Cc1nc2c(N)nc3ccccc3c2n1CCOCCNC(=O)NC1CCCCC1', '207 to 209 °C');

In the following, a different molecule is considered.
Task: melting point for Cc1nc2c(N)nc3ccccc3c2n1CCOCCNC(=O)Nc1ccccc1 ?
Result: 193 to 195 °C

src = patent US7214675B2
